Target: Cathepsin K (Homo sapiens, UniProt P43235)
Construct: purchased Biovision K150-100
Sequence (P43235 115-329): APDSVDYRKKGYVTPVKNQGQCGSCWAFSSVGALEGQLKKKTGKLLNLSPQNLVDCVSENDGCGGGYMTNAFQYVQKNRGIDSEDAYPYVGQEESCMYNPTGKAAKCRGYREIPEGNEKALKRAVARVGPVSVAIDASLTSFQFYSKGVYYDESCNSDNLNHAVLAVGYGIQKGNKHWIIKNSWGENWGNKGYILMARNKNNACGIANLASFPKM
Method Summary: Preliminary screening of Cathepsin K (Cathepsin K Inhibitor Screening Kit K150-100, Biovision)
Type: biochemical
Measurement Context: 1 μM compound; replicate 1; relative inhibition rate vs 10 μM FF-FMK control
Tick y if Inhibition % (1 μM) replicate 1 is 40% or greater. Tick n if Inhibition % (1 μM) replicate 1 is less than 40%.

Consider the following illustrative entries.
Query: Given the entry `CCOC(=O)[C@H]1O[C@@H]1C(=O)N[C@@H](CCSC)C(=O)NCCC(C)C` , answer whether its Inhibition % (1 μM) replicate 1 meets or surpasses 40%.
Reply: n

Query: Given the entry `CCOC(=O)[C@H]1O[C@@H]1C(=O)N[C@H](CSCc1ccccc1)C(=O)NCCc1ccc(OC)cc1` , answer whether its Inhibition % (1 μM) replicate 1 meets or surpasses 40%.
Reply: n

Query: Given the entry CCOC(=O)[C@H]1O[C@@H]1C(=O)N[C@@H](CC(C)C)C(=O)NCCC(C)C [zxy-37, E64d, reference compound] , answer whether its Inhibition % (1 μM) replicate 1 meets or surpasses 40%.
Reply: y

Query: Given the entry CCOC(=O)[C@H]1O[C@@H]1C(=O)N[C@H](CSCc1ccccc1)C(=O)NCC(C)CC (some centres unmarked) , answer whether its Inhibition % (1 μM) replicate 1 meets or surpasses 40%.
Reply: n

Then there is this compound:
Query: Given the entry CCCNC(=O)[C@H]1O[C@@H]1C(=O)N[C@H](C(=O)N1CCC[C@H]1C(=O)O)[C@@H](C)CC [zxy-60, CA-074, reference compound] , answer whether its Inhibition % (1 μM) replicate 1 meets or surpasses 40%.
Reply: y
